target: UniProtKB P14842
Sequence (P14842 whole entry): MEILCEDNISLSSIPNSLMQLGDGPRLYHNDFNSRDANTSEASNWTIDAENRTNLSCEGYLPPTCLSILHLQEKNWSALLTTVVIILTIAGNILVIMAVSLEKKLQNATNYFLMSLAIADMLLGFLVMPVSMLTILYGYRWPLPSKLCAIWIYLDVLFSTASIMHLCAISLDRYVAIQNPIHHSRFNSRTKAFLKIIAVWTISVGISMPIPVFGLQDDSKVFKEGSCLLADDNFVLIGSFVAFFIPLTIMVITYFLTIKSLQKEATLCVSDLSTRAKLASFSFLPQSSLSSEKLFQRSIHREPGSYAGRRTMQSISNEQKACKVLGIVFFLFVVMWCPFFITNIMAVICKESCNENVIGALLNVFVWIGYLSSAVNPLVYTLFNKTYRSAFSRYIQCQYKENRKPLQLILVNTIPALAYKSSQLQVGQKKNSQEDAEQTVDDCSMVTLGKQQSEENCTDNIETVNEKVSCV
pKi: −log10 of the molar value.
Classification field: enter MET for pKi values not below 7, NOT MET for values below it.

Please review the following examples before continuing.
compound="c1ccc(CCCCCN2C3CCC2c2c([nH]c4ccccc24)C3)cc1 (centres unmarked)" label=MET
compound="Fc1ccc(CCCCN2C3CCCC2c2c([nH]c4ccccc24)C3)cc1 (centres unmarked)" label=MET
compound="Fc1ccc(CCCCN2C3CCCC2c2c([nH]c4ccc(F)cc24)C3)cc1 (centres unmarked)" label="NOT MET"
compound="c1ccc(OCCCN2C3CCC2c2c([nH]c4ccccc24)C3)cc1 (centres unmarked)" label=MET
compound="Fc1ccc(C(=CCCN2C3CCCC2c2c([nH]c4ccc(F)cc24)C3)c2ccc(F)cc2)cc1 (centres unmarked)" label="NOT MET"

Tell me whether pKi is at least 7 here: c1ccc(OCCN2C3CCC2c2c([nH]c4ccccc24)C3)cc1 (centres unmarked)
MET

Tell me whether pKi is at least 7 here: O=C(CCCN1C2CCCC1c1c([nH]c3ccccc13)C2)c1ccc(F)cc1 (centres unmarked)
MET
